Entries and their pEC50 values follow.
target_or_system: hDP (Homo sapiens)
Sequence (Q13258 1-359): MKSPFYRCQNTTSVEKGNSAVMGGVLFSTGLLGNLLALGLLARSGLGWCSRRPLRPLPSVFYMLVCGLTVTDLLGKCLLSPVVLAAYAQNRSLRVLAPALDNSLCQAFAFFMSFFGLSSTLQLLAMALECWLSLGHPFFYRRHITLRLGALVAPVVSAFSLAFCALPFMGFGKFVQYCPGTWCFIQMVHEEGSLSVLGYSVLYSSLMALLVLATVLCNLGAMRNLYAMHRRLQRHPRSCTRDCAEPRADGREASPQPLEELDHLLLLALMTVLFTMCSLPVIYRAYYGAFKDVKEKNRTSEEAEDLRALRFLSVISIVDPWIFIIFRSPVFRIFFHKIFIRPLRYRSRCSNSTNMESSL
protocol: Other receptors functional assay, hDP
pEC50: −log10 of the molar value.
recorded_endpoint: pEC50

INSERT INTO assay_data (molecule, bound_type, assay_result) VALUES
  ('CCCCC[C@H](O)c1ccc(N2C(=O)CO[C@H]2CCCc2ccc(C(=O)O)s2)cc1 (single isomer, unassigned)', '=', 5.71),
  ('O=C(O)c1ccc(CCCC2OCC(=O)N2c2ccccc2)s1 (centres unmarked)', '<', 5.00),
  ('CCCCCCc1ccc(N2C(=O)COC2CCCc2ccc(C(=O)O)s2)cc1 (centres unmarked)', '=', 6.18),
  ('CCCCCC(O)c1ccc(N2C(=O)COC2CCCc2ccc(C(=O)O)s2)cc1 (centres unmarked)', '=', 6.67),
  ('CCCCC[C@H](O)c1ccc(N2C(=O)CO[C@@H]2CCCc2ccc(C(=O)O)s2)cc1 (single isomer, unassigned)', '=', 7.14);

====

target_or_system: hEP3A (Homo sapiens, UniProt P43115)
Sequence (P43115 whole entry): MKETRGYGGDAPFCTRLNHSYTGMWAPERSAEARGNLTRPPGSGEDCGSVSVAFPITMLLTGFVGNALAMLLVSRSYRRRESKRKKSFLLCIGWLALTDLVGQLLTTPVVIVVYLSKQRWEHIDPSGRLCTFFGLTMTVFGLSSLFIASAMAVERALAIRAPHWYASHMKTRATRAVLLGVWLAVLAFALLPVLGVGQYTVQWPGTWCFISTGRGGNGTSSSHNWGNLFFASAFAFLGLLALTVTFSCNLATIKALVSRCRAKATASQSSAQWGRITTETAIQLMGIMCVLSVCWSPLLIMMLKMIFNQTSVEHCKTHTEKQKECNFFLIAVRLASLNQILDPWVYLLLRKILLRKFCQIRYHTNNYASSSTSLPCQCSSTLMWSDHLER
protocol: Other receptors functional assay, hEP3A
Excerpt: U.S. Patent Application Publication No. 20070129552, incorporated by reference herein, describes the methods used to obtain the in vitro data in the table below.
recorded_endpoint: EC50

INSERT INTO results (molecule, assay_result) VALUES
  ('CCCCCCc1ccc(N2C(=O)COC2CCCc2ccc(C(=O)O)s2)cc1 (centres unmarked) [Example 8]', '237 nM'),
  ('CCCCC[C@H](O)c1ccc(N2C(=O)CO[C@H]2CCCc2ccc(C(=O)O)s2)cc1 (single isomer, unassigned) [Example 3]', '268 nM'),
  ('CCCCC[C@H](O)c1ccc(N2C(=O)CO[C@@H]2CCCc2ccc(C(=O)O)s2)cc1 (single isomer, unassigned) [Example 4]', '4 nM'),
  ('CCCCCC(O)c1ccc(N2C(=O)COC2CCCc2ccc(C(=O)O)s2)cc1 (centres unmarked) [Example 2]', '11 nM'),
  ('CCCCCC(O)c1ccc(N2C(=O)CSC2CCCc2ccc(C(=O)O)s2)cc1 (centres unmarked) [Example 1]', '8320 nM');

====

target_or_system: EP2 (Homo sapiens)
Sequence (P43116 whole entry): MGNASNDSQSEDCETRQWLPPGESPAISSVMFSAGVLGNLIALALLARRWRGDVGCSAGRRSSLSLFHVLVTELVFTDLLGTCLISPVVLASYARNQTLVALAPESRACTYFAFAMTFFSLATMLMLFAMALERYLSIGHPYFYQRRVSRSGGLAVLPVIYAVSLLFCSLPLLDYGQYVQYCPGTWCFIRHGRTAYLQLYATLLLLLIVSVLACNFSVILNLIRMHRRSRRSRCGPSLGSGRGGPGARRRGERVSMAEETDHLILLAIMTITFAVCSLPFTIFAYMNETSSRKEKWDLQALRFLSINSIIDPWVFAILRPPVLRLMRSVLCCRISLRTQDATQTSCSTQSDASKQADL
protocol: EP2 flipr functional assay
pEC50: −log10 of the molar value.
Please mark 1 if the recorded pEC50 is equal to or greater than 7, and -1 if it falls below.

INSERT INTO measurements (compound, classification) VALUES
  ('CCCCCC(O)c1ccc(N2C(=O)CSC2CCCc2ccc(C(=O)O)s2)cc1 (stereo not drawn)', -1),
  ('CCCCC[C@H](O)c1ccc(N2C(=O)CO[C@@H]2CCCc2ccc(C(=O)O)s2)cc1 (single isomer, unassigned)', 1),
  ('CCCCCCc1ccc(N2C(=O)COC2CCCc2ccc(C(=O)O)s2)cc1 (stereo not drawn)', 1),
  ('CCCCCC(O)c1ccc(N2C(=O)COC2CCCc2ccc(C(=O)O)s2)cc1 (stereo not drawn)', 1),
  ('O=C(O)c1ccc(CCCC2OCC(=O)N2c2ccccc2)s1 (stereo not drawn)', -1);
